- Experimental target: human pancreas Glucokinase (GK) (Homo sapiens, UniProt P35557)
- Construct: His6; made in house; host or cells: Escherichia coli
- Sequence (P35557 whole entry): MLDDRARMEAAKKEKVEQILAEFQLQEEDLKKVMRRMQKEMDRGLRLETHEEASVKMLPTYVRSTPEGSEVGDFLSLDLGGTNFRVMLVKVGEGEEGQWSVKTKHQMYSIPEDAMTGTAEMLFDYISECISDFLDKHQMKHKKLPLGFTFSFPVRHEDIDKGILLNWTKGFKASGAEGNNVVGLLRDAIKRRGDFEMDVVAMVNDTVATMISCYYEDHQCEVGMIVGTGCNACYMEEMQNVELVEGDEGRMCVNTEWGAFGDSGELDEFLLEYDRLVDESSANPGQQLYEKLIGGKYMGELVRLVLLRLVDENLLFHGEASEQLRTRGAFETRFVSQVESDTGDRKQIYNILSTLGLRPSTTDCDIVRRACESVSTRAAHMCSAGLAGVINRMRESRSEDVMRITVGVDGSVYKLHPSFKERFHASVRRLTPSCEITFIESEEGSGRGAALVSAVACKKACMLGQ
- Experiment summary: Glucokinase enzyme assay, pancreas GK
- Type: biochemical
- Study conditions: increase in GK activity above vehicle control, compound 50 μM, 12 mM glucose

>  <Compound>
O=C(CCC1c2c(F)cccc2C(=O)N1Cc1ccc(F)cc1)Nc1ccc(F)cn1 (centres unmarked)

>  <Experimental target>
human pancreas Glucokinase (GK) (Homo sapiens, UniProt P35557)

>  <activation at 50 µM, %>
219

$$$$
>  <Compound>
O=C(CCC1c2c(F)cccc2C(=O)N1Cc1ccc(F)cc1)Nc1ccc(Cl)nn1 (centres unmarked)

>  <Experimental target>
human pancreas Glucokinase (GK) (Homo sapiens, UniProt P35557)

>  <activation at 50 µM, %>
152

$$$$
>  <Compound>
O=C(CCC1c2c(F)cccc2C(=O)N1Cc1ccc(F)cc1)Nc1ccc(-c2ccc(F)cc2)cn1 (centres unmarked)

>  <Experimental target>
human pancreas Glucokinase (GK) (Homo sapiens, UniProt P35557)

>  <activation at 50 µM, %>
177

$$$$
>  <Compound>
O=C(CCC1c2cccc(F)c2C(=O)N1Cc1ccc(F)cc1)Nc1ccc(C(=O)O)cn1 (centres unmarked)

>  <Experimental target>
human pancreas Glucokinase (GK) (Homo sapiens, UniProt P35557)

>  <activation at 50 µM, %>
188

$$$$
>  <Compound>
O=C(CCC1c2c(F)cccc2C(=O)N1Cc1ccc(F)cc1)Nc1ccccn1 (centres unmarked)

>  <Experimental target>
human pancreas Glucokinase (GK) (Homo sapiens, UniProt P35557)

>  <activation at 50 µM, %>
179

$$$$
>  <Compound>
O=C(Nc1ccccn1)OCCC1c2cccc(F)c2C(=O)N1Cc1ccc(F)cc1 (centres unmarked)

>  <Experimental target>
human pancreas Glucokinase (GK) (Homo sapiens, UniProt P35557)

>  <activation at 50 µM, %>
23.8

$$$$
>  <Compound>
CS(=O)(=O)c1ccc(NC(=O)CCC2c3c(F)cccc3C(=O)N2Cc2ccc(F)cc2)nc1 (centres unmarked)

>  <Experimental target>
human pancreas Glucokinase (GK) (Homo sapiens, UniProt P35557)

>  <activation at 50 µM, %>
62.8

$$$$
>  <Compound>
COc1ccc(CN2C(=O)c3ccccc3C2CCS(=O)(=O)Nc2nccs2)cc1 (centres unmarked)

>  <Experimental target>
human pancreas Glucokinase (GK) (Homo sapiens, UniProt P35557)

>  <activation at 50 µM, %>
15.8

$$$$
